Target: Siglec-1 (sialoadhesin) (Mus musculus)
Sequence (Q62230 20-136 limits assumed): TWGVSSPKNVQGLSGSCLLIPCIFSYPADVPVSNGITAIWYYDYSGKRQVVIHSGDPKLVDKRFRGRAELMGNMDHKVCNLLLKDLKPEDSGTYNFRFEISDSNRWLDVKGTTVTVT
Test: Hapten inhibition assay, Siglec-1 (sialoadhesin)
Assay type: binding
Conditions: quotient IC50 reference compound / IC50 compound
Give measured Siglec-1 (sialoadhesin) rIP for each item. Keep answers brief.

{"columns": ["compound", "Siglec-1 (sialoadhesin) rIP"],
 "data": [
  ["COC1(C(=O)O)CC(O)C(NC(C)=O)C(C(O)C(O)CNC(=O)c2ccc3ccccc3n2)O1 (stereo not drawn)", "<<0.2"]
]}

Hello, I would appreciate it if you could give Siglec-1 (sialoadhesin) rIP for each entry below.
1. COC1(C(=O)O)CC(O)C(O)C(C(O)C(O)CO)O1 (stereo not drawn) [Methyl-α-ketodesoxy-nonulsonic acid]
2. COC1(C(=O)O)CC(O)C(NC(C)=O)C(C(O)C(O)CNC(=O)CNC(=O)CN)O1 (stereo not drawn)
3. CO[C@]1(C(=O)O)C[C@H](O)[C@@H](NC(C)=O)[C@H]([C@H](O)[C@H](O)C[S+](C)[O-])O1 (stereo partly drawn)
4. CO[C@]1(C(=O)O)C[C@H](O)[C@@H](NC(C)=O)[C@H]([C@H](O)[C@H](O)CNC(=O)c2cccc3ccccc23)O1
5. CO[C@]1(C(=O)O)C[C@H](O)[C@@H](NC(C)=O)[C@H]([C@H](O)[C@H](O)CNC(=O)C(CNC(C)=O)NC(C)=O)O1 (stereo partly drawn)
6. COC1(C(=O)O)CC(O)C(NC(C)=O)C(C(O)C(O)CNC(=O)CC(C)=O)O1 (stereo not drawn)

1. <0.8
2. <<0.1
3. <0.05
4. 0.3
5. <<0.1
6. <0.05

Below are some compounds; for each one, tell me its Siglec-1 (sialoadhesin) rIP.
1. COC(=O)C1(OC)CC(O)C(NC(=O)CF)C(C(O)C(O)CO)O1 (stereo not drawn)
2. COC1(C(=O)O)CC(O)C(NC(C)=O)C(C(O)C(O)CSC)O1 (stereo not drawn) [Methyl-α-9-methylthio-9-desoxy-Neu5Ac]

[1.9, "<<0.05"]
